Entries and their measured pIC50 follow.
STUDY_SYSTEM: HCV polymerase (NS5B) type 1a (Hepatitis C virus genotype 1a)
Construct: made in house; host or cells: Escherichia coli (by the 'similar method' of the 1b enzyme)
MEASUREMENT_PROTOCOL: Assay of enzyme (HCV polymerase) inhibitory activity, type 1a enzyme
Assay type: biochemical, HCV type 1a (cloned from the blood of patients)
ASSAY_CONDITIONS: HCV polymerase inhibitory activity (IC50), 1a, type 1a enzyme 1.5 μg/ml, 25° C., 60 min
pIC50: −log10 of the molar value.

MOLECULE	pIC50
CCC(F)(F)c1ccc(CNC(=O)[C@H]2CN(C(=O)Nc3nnc(C)s3)CCN2S(=O)(=O)c2ccc(OC(F)(F)F)cc2)cc1	6.00 to 7.00
CC(=O)N1CCN(S(=O)(=O)c2ccc(C(C)C)cc2)C(C(=O)NCc2ccc(N(C)CCO)cc2)C1 (stereo not shown)	< 6.00
CCCOc1ccc(S(=O)(=O)N2CCN(C(C)=O)C[C@@H]2C(=O)NCc2ccc(C(C)C)cc2)cc1	6.00 to 7.00
CC(=O)N1CCN(S(=O)(=O)c2ccc(C)cc2)C(C(=O)NCc2ccc(C(F)(F)F)cc2)C1 (stereo not shown)	< 6.00
CC(=O)N1CCN(S(=O)(=O)c2ccc(-n3cc(Cl)cn3)s2)C(C(=O)NCc2ccc(C(F)(F)F)cc2)C1 (stereo not shown)	< 6.00
CC(C)(C)c1ccc(CNC(=O)[C@H]2CN(c3nc4nc[nH]c(=O)c4s3)CCN2S(=O)(=O)c2ccc(OC(F)(F)F)cc2)cc1	> 7.00
COc1ccc(S(=O)(=O)N2CCN(C(C)=O)C[C@@H]2C(=O)NCc2ccc(C(C)C)cc2)cc1C(C)C	6.00 to 7.00
